From: paper PMC3445454

# system under test: HLA-DR DRB1*12:01 (Homo sapiens, UniProt P01903+P01911, A100R/A169T/D57E/D86V/F55L/H45Y/K41T/L162R/M171V/P40S/Q125H/Q178H/Q39Y/Q99D/R42G/S66L/T262R/V114A/V67L/W38E/Y59H/Y61H/Y89S)
# procedure details: biochemical
# Assay type: binding
# test parameters: read-out: Binding capacity/IC50 (nM) DRB1*12:01
Ends that are not written are not given here.
IC50 values by entry
# output: bare number, implied unit nM

Please review the following examples before continuing.
>  <substance>
IVALIIAIVVWTIV-NH2 [vpu(13-26)]

>  <units text>
nM

>  <IC50>
12700

$$$$
>  <substance>
DEELLKAVRIIKILYQSNP-NH2 [rev(9-27)]

>  <units text>
nM

>  <IC50>
66

$$$$
>  <substance>
SEELRSLYNTVATLYCVHQ-NH2 [p17(72-90)]

>  <units text>
nM

>  <IC50>
1680

$$$$
>  <substance>
YAKMRSAHTNDVKQL-NH2 [RT(354-368)]

>  <units text>
nM

>  <IC50>
4840

$$$$
>  <substance>
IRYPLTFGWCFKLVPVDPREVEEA-NH2 [nef(133-156)]

>  <units text>
nM

>  <IC50>
4430

$$$$

Item NYPIVQNLQGQMVHQAISPR-NH2 [p17(131-132)/p24(1-18)] has what recorded IC50?
940

----------
IC50 by entry:
# system under test: HLA-DR DRB3*01:01 (Homo sapiens, UniProt P01903+P79483)
# procedure details: biochemical
# Format: binding
# test parameters: read-out: Binding capacity/IC50 (nM) DRB3*01:01

// known answers, use as guide
>  <smiles entry>
CC(C)C[C@H](NC(=O)[C@H](CCCCN)NC(=O)[C@@H](NC(=O)[C@H](CC(C)C)NC(=O)[C@@H]1CCCN1C(=O)[C@@H]1CCCN1C(=O)[C@@H](NC(=O)[C@H](CC(N)=O)NC(=O)[C@@H](NC(=O)[C@H](Cc1ccccc1)NC(=O)[C@H](CCC(=O)O)NC(=O)[C@H](Cc1c[nH]c2ccccc12)NC(=O)[C@@H](N)CCC(=O)O)C(C)C)[C@@H](C)O)C(C)C)C(=O)N[C@@H](Cc1c[nH]c2ccccc12)C(=O)N[C@@H](Cc1ccc(O)cc1)C(N)=O

>  <IC50>
2390 nM

$$$$
>  <smiles entry>
CC[C@H](C)[C@H](NC(=O)[C@H](Cc1ccc(O)cc1)NC(=O)CNC(=O)[C@H](CO)NC(=O)[C@H](C)NC(=O)[C@@H](NC(=O)[C@H](Cc1c[nH]cn1)NC(=O)[C@@H](NC(=O)[C@H](C)NC(=O)[C@@H](NC(=O)[C@H](CC(C)C)NC(=O)[C@@H](NC(=O)[C@@H](NC(=O)[C@H](CCCCN)NC(=O)CNC(=O)[C@@H](N)CCC(=O)O)[C@@H](C)CC)[C@@H](C)CC)C(C)C)C(C)C)C(C)C)C(=O)N[C@@H](CCC(=O)O)C(N)=O

>  <IC50>
624 nM

$$$$
>  <smiles entry>
CC[C@H](C)[C@H](NC(=O)[C@@H](NC(=O)[C@H](CCCCN)NC(=O)[C@@H](NC(=O)[C@@H]1CCCN1C(=O)[C@H](Cc1c[nH]c2ccccc12)NC(=O)[C@H](CCCNC(=N)N)NC(=O)CNC(=O)[C@H](C)NC(=O)[C@H](CC(C)C)NC(=O)[C@H](CCCCN)NC(=O)[C@H](CC(C)C)NC(=O)[C@@H](NC(=O)[C@H](Cc1ccccc1)NC(=O)[C@H](Cc1ccc(O)cc1)NC(=O)[C@H](C)NC(=O)[C@@H](NC(=O)[C@@H](N)CCC(=O)O)[C@@H](C)O)[C@@H](C)CC)C(C)C)C(C)C)C(N)=O

>  <IC50>
583 nM

$$$$

Hi! What's the reported IC50 for `CSCC[C@H](NC(=O)[C@H](CCCCN)NC(=O)[C@H](C)NC(=O)[C@H](Cc1ccc(O)cc1)NC(=O)[C@H](CCCCN)NC(=O)CNC(=O)[C@@H](NC(=O)[C@H](CCCCN)NC(=O)[C@H](CC(C)C)NC(=O)[C@H](CC(N)=O)NC(=O)[C@H](CCCCN)NC(=O)[C@H](Cc1ccccc1)NC(=O)[C@@H]1CCCN1C(=O)[C@H](CCC(=O)O)NC(=O)[C@@H](N)CCC(N)=O)[C@@H](C)O)C(N)=O` on HLA-DR DRB3*01:01 (Homo sapiens, UniProt P01903+P79483)?
5610 nM

----------
# system under test: HLA-DR DRB1*16:02 (Homo sapiens, UniProt P01903+P01911, A100R/F76Y/I96L/Q99D/V115G)
# procedure details: biochemical
# Assay type: binding
# test parameters: read-out: Binding capacity/IC50 (nM) DRB1*16:02
Ends that are not written are not given here.
assay readout: log10(IC50) (log10 of the value in nM)
Please be aware that the numbers have been log10-transformed from IC50 in nM.

Solved cases (4 shown):
>  <substance>
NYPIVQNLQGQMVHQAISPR-NH2 [p17(131-132)/p24(1-18)]

>  <log10(IC50)>
1.83

$$$$
>  <substance>
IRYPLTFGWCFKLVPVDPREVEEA-NH2 [nef(133-156)]

>  <log10(IC50)>
3.44

$$$$
>  <substance>
DEELLKAVRIIKILYQSNP-NH2 [rev(9-27)]

>  <log10(IC50)>
1.87

$$$$
>  <substance>
SEELRSLYNTVATLYCVHQ-NH2 [p17(72-90)]

>  <log10(IC50)>
2.15

$$$$

Requested field: log10(IC50). Item: IVALIIAIVVWTIV-NH2 [vpu(13-26)]
3.64

For the substance YAKMRSAHTNDVKQL-NH2 [RT(354-368)] , what log10(IC50) is on record?
1.76

----------
# system under test: HLA-DR DRB1*11:01 (Homo sapiens, UniProt P01903+P01911, A100R/A169T/A87E/I96F/K41T/L162R/M171V/P40S/Q125H/Q178H/Q39Y/Q99D/R42S/S66Y/T262R/V115G/W38E)
# Sequence (P01903 26-254 limits assumed, other chains not shown): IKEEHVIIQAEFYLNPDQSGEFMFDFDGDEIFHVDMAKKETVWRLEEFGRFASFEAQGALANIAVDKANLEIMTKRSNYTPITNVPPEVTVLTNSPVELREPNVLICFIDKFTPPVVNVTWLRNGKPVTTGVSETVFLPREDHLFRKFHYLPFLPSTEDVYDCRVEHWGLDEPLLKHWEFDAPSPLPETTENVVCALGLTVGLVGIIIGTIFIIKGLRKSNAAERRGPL
# procedure details: biochemical
# Type: binding
Ends that are not written are not given here.
assay readout: pIC50
pIC50 is defined as minus the log10 of a concentration measured in mol/L.

>  <substance>
VVIQDNSDIKVVPRRKAKII-NH2 [integrase(249-268)]

>  <assay readout>
pIC50

>  <readout value>
7.55

$$$$

What pIC50 value was documented for this substance, VGSLQYLALTALITPKK-NH2 [vif(142-158)] ?
7.32

----------
# system under test: HLA-DR DRB5*01:01 (Homo sapiens, UniProt P01903+Q30154)
# procedure details: biochemical
# Assay type: binding
Ends that are not written are not given here.
assay readout: pIC50
Just so you know, pIC50 here is -log10 of the concentration in molar units; reply with that number alone.

Worked set:
>  <substance>
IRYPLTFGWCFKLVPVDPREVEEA-NH2 [nef(133-156)]

>  <assay readout>
pIC50

>  <readout value>
6.50

$$$$
>  <substance>
VGSLQYLALTALITPKK-NH2 [vif(142-158)]

>  <assay readout>
pIC50

>  <readout value>
8.62

$$$$

Let's switch to this substance now.
May I ask what pIC50 has been recorded for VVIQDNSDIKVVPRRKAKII-NH2 [integrase(249-268)] ?
7.34

----------
# system under test: HLA-DR DRB1*10:01 (Homo sapiens, UniProt P01903+P01911, A100R/A169T/D57E/F55L/F60V/F69Y/F76Y/I96L/L162R/M171V/P40V/Q260P/Q39E/Q99R/R195Q/R42F/S149N/S66Y/T210M/V115G/V67A/W38E/Y59R/Y61H)
# procedure details: biochemical
# Assay type: binding
# test parameters: read-out: Binding capacity/IC50 (nM) DRB1*10:01
Ends that are not written are not given here.
Reported values of IC50 for individual entries

Solved entries:
>  <substance>
IVALIIAIVVWTIV-NH2 [vpu(13-26)]

>  <IC50>
1780 nM

$$$$
>  <substance>
LNKIVRMYSPVSILDI-NH2 [p24(138-153)]

>  <IC50>
6.6 nM

$$$$
>  <substance>
DEELLKAVRIIKILYQSNP-NH2 [rev(9-27)]

>  <IC50>
3.9 nM

$$$$
>  <substance>
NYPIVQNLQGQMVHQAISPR-NH2 [p17(131-132)/p24(1-18)]

>  <IC50>
59 nM

$$$$
>  <substance>
SEELRSLYNTVATLYCVHQ-NH2 [p17(72-90)]

>  <IC50>
39 nM

$$$$

Give the measured IC50 of YAKMRSAHTNDVKQL-NH2 [RT(354-368)] .
16 nM
